target-or-test-system: Human immunodeficiency virus type 1 protease (Human immunodeficiency virus 1)
measurement-protocol: Inhibitory activity against HIV-1 protease
readout-name: IC50 (nM)
Hi! Could you send only the number? It should be in nM, unit omitted.

Consider the worked cases shown below.
# smiles-repr, IC50 / nM
measured = [
    ("COC(=O)[C@@H](NC(=O)[C@@H](NC(=O)[C@H](Cc1ccccc1)CC(O)C[C@@H](Cc1ccccc1)C(=O)N[C@H](C(=O)N[C@H](C(=O)OC)C(C)C)C(C)C)C(C)C)C(C)C", 5),
    ("CCCC[C@H](CC(O)C[C@@H](CCCC)C(=O)N[C@@H](C)C(=O)N[C@@H](C)C(=O)OC)C(=O)N[C@@H](C)C(=O)N[C@@H](C)C(=O)OC", 75),
]

Now for the compound whose IC50 we want.
Which IC50 value is on record for CCCC[C@H](CC(O)C[C@@H](CCCC)C(=O)N[C@@H](CC(C)C)C(=O)N[C@@H](Cc1ccccc1)C(=O)OC)C(=O)N[C@@H](CC(C)C)C(=O)N[C@@H](Cc1ccccc1)C(=O)OC ?
90

----------
target-or-test-system: Human immunodeficiency virus type 1 protease (Human immunodeficiency virus 1, UniProt Q72874)
measurement-protocol: Inhibitory activity against HIV-1 protease
readout-name: IC50 (nM)
Hi! Could you send only the number? It should be in nM, unit omitted.

# smiles-repr, quantitative-readout
measured = [
    ("CCCC[C@H](CC1(C[C@@H](CCCC)C(=O)N[C@@H](CC(C)C)C(=O)N[C@@H](Cc2ccccc2)C(=O)OC)CO1)C(=O)N[C@@H](CC(C)C)C(=O)N[C@@H](Cc1ccccc1)C(=O)OC", 400),
    ("CC[C@H](C)[C@H](NC(=O)[C@H](Cc1ccccc1)CC(O)C[C@@H](Cc1ccccc1)C(=O)N[C@H](C(=O)NCc1nc2ccccc2[nH]1)[C@@H](C)CC)C(=O)NCc1nc2ccccc2[nH]1", 3),
    ("CCCC[C@H](CC(O)C[C@@H](CCCC)C(=O)N[C@H](C(=O)N[C@H](C(=O)OC)C(C)C)C(C)C)C(=O)N[C@H](C(=O)N[C@H](C(=O)OC)C(C)C)C(C)C", 5),
    ("CC(C)[C@H](NC(=O)[C@H](Cc1ccccc1)CC(O)C[C@@H](Cc1ccccc1)C(=O)N[C@H](C(=O)NCc1nc2ccccc2[nH]1)C(C)C)C(=O)NCc1nc2ccccc2[nH]1", 10),
]

Now for the compound whose IC50 we want.
Which IC50 value is on record for COC(=O)[C@H](Cc1ccccc1)NC(=O)[C@@H](NC(=O)[C@H](Cc1ccccc1)CC(O)C[C@@H](Cc1ccccc1)C(=O)N[C@H](C(=O)N[C@@H](Cc1ccccc1)C(=O)OC)C(C)C)C(C)C ?
10

----------
target-or-test-system: Human immunodeficiency virus type 1 protease (Human immunodeficiency virus 1)
measurement-protocol: Compound was evaluated for its inhibitory activity against recombinant HIV-1 protease using [125I]-SPA (scintillation proximity assay)
readout-name: IC50 (µM)
Hi! Could you send only the number? It should be in µM, unit omitted.

Which IC50 value is on record for CC[C@H](C)[C@H](NC(=O)[C@H](Cc1ccccc1)CC(O)C[C@@H](Cc1ccccc1)C(=O)N[C@H](C(=O)NCc1nc2ccccc2[nH]1)[C@@H](C)CC)C(=O)NCc1nc2ccccc2[nH]1 ?
40
